Quick list: koff per entry.
Target Entity: T1, cynomolgus SIRP-α D1 domain (cyno2) (cynomolgus monkey, UniProt Q5TFQ8 30-148 (human entry), limits assumed)
T1 chain: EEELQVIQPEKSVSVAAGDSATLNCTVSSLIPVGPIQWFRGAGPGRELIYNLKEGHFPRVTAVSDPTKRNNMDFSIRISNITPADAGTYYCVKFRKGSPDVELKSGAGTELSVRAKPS
Procedure Summary: SPR, Langmuir fit
Answer format: numeric, s⁻¹ implied, no suffix.

- Binder: "S23 (scFv, V domains shown, also called clone 23) VH: DVQLVESGGGVVRPGESLRLSCAASGFTFSSHAMSWVRQAPGKGLEWLAGISAGGSDTYYIDSVKGRFTISRDNSKSSLYLRMNSLTAEDTAVYYCARETWNHLFDYWGLGTLVTVSS VL: ALTQPASVSANPGETVKITCSGGDYYSTYYAWYQQKSPGSAPVTVIHSDDERPSDIPSRFSGSASGSAATLIITGVRVEDEAVYFCGGYDGRTYINTFGAGTTLTVL"
  Readout Units: "s⁻¹"
  Meas Value: 0.000183

Now consider the entry below.
Measured koff of S76 (scFv, V domains shown, also called clone 76) VH: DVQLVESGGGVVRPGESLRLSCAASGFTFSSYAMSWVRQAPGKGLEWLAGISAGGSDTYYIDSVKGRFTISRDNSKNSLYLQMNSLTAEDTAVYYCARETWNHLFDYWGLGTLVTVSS VL: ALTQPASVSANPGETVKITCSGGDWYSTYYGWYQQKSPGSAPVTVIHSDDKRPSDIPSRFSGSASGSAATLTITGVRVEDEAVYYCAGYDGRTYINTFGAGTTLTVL : 0.000269
